Reference source for all entries: ChEMBL document CHEMBL5291721

The reader will find AC50 measurements below, all made with Thromboxane A2 receptor (Homo sapiens, UniProt P21731).
Sequence (P21731 whole entry): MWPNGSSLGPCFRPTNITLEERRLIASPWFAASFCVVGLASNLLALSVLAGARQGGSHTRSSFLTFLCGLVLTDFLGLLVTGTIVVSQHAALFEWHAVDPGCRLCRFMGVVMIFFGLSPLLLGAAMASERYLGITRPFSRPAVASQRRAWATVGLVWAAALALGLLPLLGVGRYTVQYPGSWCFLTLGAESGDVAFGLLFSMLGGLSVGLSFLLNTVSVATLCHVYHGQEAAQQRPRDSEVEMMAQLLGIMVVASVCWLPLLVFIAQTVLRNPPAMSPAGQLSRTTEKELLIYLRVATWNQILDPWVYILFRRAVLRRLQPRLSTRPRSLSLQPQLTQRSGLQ

Known results for molecules:
Query :: Any idea what AC50 was measured for CC(CCc1ccc(O)cc1)NCCc1ccc(O)c(O)c1 (stereo not drawn) ?
Result :: > 30 µM

Query :: Any idea what AC50 was measured for O=C1CN=C(c2ccccn2)c2cc(Br)ccc2N1 ?
Result :: > 10 µM

Query :: Any idea what AC50 was measured for COc1ccc(CC2c3cc(OC)c(OC)cc3CC[N+]2(C)CCC(=O)OCCCCCOC(=O)CC[N+]2(C)CCc3cc(OC)c(OC)cc3C2Cc2ccc(OC)c(OC)c2)cc1OC (stereo not drawn) ?
Result :: > 30 µM

Query :: Any idea what AC50 was measured for CN(C)CCc1c[nH]c2ccc(Cn3cncn3)cc12 ?
Result :: > 30 µM

Query :: Any idea what AC50 was measured for CC(=O)OCC(=O)[C@@]1(O)[C@H](C)C[C@H]2[C@@H]3CCC4=CC(=O)C=C[C@]4(C)[C@@]3(F)[C@@H](O)C[C@@]21C [DEXAMETHASONE ACETATE] ?
Result :: 16 µM

Query :: Any idea what AC50 was measured for Cc1ncc2n1-c1ccc(Cl)cc1C(c1ccccc1F)=NC2 ?
Result :: > 30 µM

Query :: Any idea what AC50 was measured for O=C1CN(/N=C/c2ccc(-c3ccc([N+](=O)[O-])cc3)o2)C(O)=N1 ?
Result :: > 10 µM

Continuing:
Query :: Any idea what AC50 was measured for Cc1noc(NS(=O)(=O)c2ccc(N)cc2)c1C ?
Result :: > 10 µM

====

# systemUnderTest: 3',5'-cyclic-AMP phosphodiesterase 4D (Homo sapiens); note: assay procedure not described here
# Sequence (Q08499 whole entry): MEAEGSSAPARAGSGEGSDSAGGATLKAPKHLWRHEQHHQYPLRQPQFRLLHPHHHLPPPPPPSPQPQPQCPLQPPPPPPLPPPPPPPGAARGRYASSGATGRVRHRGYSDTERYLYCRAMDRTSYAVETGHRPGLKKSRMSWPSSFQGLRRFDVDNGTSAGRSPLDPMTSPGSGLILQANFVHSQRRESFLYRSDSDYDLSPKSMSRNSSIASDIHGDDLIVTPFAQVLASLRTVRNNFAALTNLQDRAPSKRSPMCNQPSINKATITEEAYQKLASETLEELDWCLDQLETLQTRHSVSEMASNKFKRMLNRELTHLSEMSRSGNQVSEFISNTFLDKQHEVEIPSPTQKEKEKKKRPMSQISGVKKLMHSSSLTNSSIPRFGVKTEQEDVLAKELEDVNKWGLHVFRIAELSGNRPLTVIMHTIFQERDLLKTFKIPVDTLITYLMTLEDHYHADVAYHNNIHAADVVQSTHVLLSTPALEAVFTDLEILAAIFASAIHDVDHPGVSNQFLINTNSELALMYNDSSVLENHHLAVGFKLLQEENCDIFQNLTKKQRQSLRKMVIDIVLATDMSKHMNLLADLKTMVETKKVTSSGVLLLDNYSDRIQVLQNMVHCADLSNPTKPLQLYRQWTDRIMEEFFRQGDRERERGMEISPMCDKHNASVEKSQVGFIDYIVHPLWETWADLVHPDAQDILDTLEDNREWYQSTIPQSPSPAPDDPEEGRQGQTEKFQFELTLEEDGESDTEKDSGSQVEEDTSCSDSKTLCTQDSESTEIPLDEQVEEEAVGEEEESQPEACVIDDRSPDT
# Type: functional
measuredQuantity: AC50

Known results for compounds:
Query :: Entry OCc1cc(C(O)CNCCCCCCOCCCCc2ccccc2)ccc1O (stereo unspecified) [SALMETEROL] , system 3',5'-cyclic-AMP phosphodiesterase 4D (Homo sapiens): what AC50 was measured?; note: assay procedure not described here
Result :: > 30 µM

Query :: Entry COCC1=C(C(=O)O)N2C(=O)[C@@H](NC(=O)/C(=N\OC)c3csc(N)n3)[C@H]2SC1 [CEFPODOXIME] , system 3',5'-cyclic-AMP phosphodiesterase 4D (Homo sapiens): what AC50 was measured?; note: assay procedure not described here
Result :: > 30 µM

Query :: Entry Nc1ccc(S(=O)(=O)Nc2nccs2)cc1 [SULFATHIAZOLE] , system 3',5'-cyclic-AMP phosphodiesterase 4D (Homo sapiens): what AC50 was measured?; note: assay procedure not described here
Result :: > 30 µM

Query :: Entry COc1ccccc1Oc1c(NS(=O)(=O)c2ccc(C(C)(C)C)cc2)nc(-c2ncccn2)nc1OCCO [BOSENTAN] , system 3',5'-cyclic-AMP phosphodiesterase 4D (Homo sapiens): what AC50 was measured?; note: assay procedure not described here
Result :: > 30 µM

Query :: Entry CNC1=Nc2ccc(Cl)cc2C(c2ccccc2)=[N+]([O-])C1 [CHLORDIAZEPOXIDE] , system 3',5'-cyclic-AMP phosphodiesterase 4D (Homo sapiens): what AC50 was measured?; note: assay procedure not described here
Result :: > 10 µM

Continuing:
Query :: Entry CC12CC3CC(C)(C1)CC(N)(C3)C2 [MEMANTINE] , system 3',5'-cyclic-AMP phosphodiesterase 4D (Homo sapiens): what AC50 was measured?; note: assay procedure not described here
Result :: > 30 µM

Query :: Entry Cn1c(=O)cc(N2CCC[C@@H](N)C2)n(Cc2ccccc2C#N)c1=O [ALOGLIPTIN] , system 3',5'-cyclic-AMP phosphodiesterase 4D (Homo sapiens): what AC50 was measured?; note: assay procedure not described here
Result :: > 30 µM

Query :: Entry C#C[C@]1(O)CC[C@H]2[C@@H]3CCC4=CC(=O)CC[C@@H]4[C@H]3C(=C)C[C@@]21CC [ETONOGESTREL] , system 3',5'-cyclic-AMP phosphodiesterase 4D (Homo sapiens): what AC50 was measured?; note: assay procedure not described here
Result :: > 30 µM

Query :: Entry CN(CC1(C)CCCO1)S(=O)(=O)c1ccc(Cl)c(S(N)(=O)=O)c1 (stereo unspecified) [MEFRUSIDE] , system 3',5'-cyclic-AMP phosphodiesterase 4D (Homo sapiens): what AC50 was measured?; note: assay procedure not described here
Result :: > 30 µM

Query :: Entry CCCC(CCC)C(=O)O [VALPROIC ACID] , system 3',5'-cyclic-AMP phosphodiesterase 4D (Homo sapiens): what AC50 was measured?; note: assay procedure not described here
Result :: > 30 µM

Query :: Entry CC1=C(C)C(=O)C(C(CCCCCC(=O)O)c2ccccc2)=C(C)C1=O (stereo unspecified) [SERATRODAST] , system 3',5'-cyclic-AMP phosphodiesterase 4D (Homo sapiens): what AC50 was measured?; note: assay procedure not described here
Result :: 22 µM

Query :: Entry COc1cc2nccc(Oc3ccc(NC(=O)C4(C(=O)Nc5ccc(F)cc5)CC4)cc3)c2cc1OC [CABOZANTINIB] , system 3',5'-cyclic-AMP phosphodiesterase 4D (Homo sapiens): what AC50 was measured?; note: assay procedure not described here
Result :: 10 µM

Query :: Entry CC(=O)O[C@H](CC(=O)[O-])C[N+](C)(C)C [ACETYLCARNITINE] , system 3',5'-cyclic-AMP phosphodiesterase 4D (Homo sapiens): what AC50 was measured?; note: assay procedure not described here
Result :: > 30 µM

Query :: Entry CCC[C@H](NC(=O)[C@@H]1[C@H]2CCC[C@H]2CN1C(=O)[C@@H](NC(=O)[C@@H](NC(=O)c1cnccn1)C1CCCCC1)C(C)(C)C)C(=O)C(=O)NC1CC1 , system 3',5'-cyclic-AMP phosphodiesterase 4D (Homo sapiens): what AC50 was measured?; note: assay procedure not described here
Result :: > 30 µM

Query :: Entry CC(C)(C)C(=O)OCC(=O)[C@H]1CC[C@H]2[C@@H]3CCC4=CC(=O)CC[C@]4(C)[C@H]3CC[C@]12C [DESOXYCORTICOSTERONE PIVALATE] , system 3',5'-cyclic-AMP phosphodiesterase 4D (Homo sapiens): what AC50 was measured?; note: assay procedure not described here
Result :: > 30 µM

Query :: Entry CN1CCC(=C2c3ccccc3CCc3cccnc32)CC1 [AZATADINE] , system 3',5'-cyclic-AMP phosphodiesterase 4D (Homo sapiens): what AC50 was measured?; note: assay procedure not described here
Result :: > 30 µM

Query :: Entry [H]/N=C(/N)N/C(=N/[H])NCCc1ccccc1 [PHENFORMIN] , system 3',5'-cyclic-AMP phosphodiesterase 4D (Homo sapiens): what AC50 was measured?; note: assay procedure not described here
Result :: > 30 µM

Query :: Entry CCOC(=O)c1cncn1[C@H](C)c1ccccc1 [ETOMIDATE] , system 3',5'-cyclic-AMP phosphodiesterase 4D (Homo sapiens): what AC50 was measured?; note: assay procedure not described here
Result :: > 30 µM

Query :: Entry O=C1CN=C(c2ccccn2)c2cc(Br)ccc2N1 [BROMAZEPAM] , system 3',5'-cyclic-AMP phosphodiesterase 4D (Homo sapiens): what AC50 was measured?; note: assay procedure not described here
Result :: > 30 µM

Query :: Entry C[C@@H](NCCCc1cccc(C(F)(F)F)c1)c1cccc2ccccc12 , system 3',5'-cyclic-AMP phosphodiesterase 4D (Homo sapiens): what AC50 was measured?; note: assay procedure not described here
Result :: > 30 µM

Query :: Entry CC(C)NCC(O)c1ccc(O)c(O)c1 (stereo unspecified) [ISOPROTERENOL] , system 3',5'-cyclic-AMP phosphodiesterase 4D (Homo sapiens): what AC50 was measured?; note: assay procedure not described here
Result :: > 30 µM

Query :: Entry CCN1CCCC1CNC(=O)c1cc(S(=O)(=O)CC)c(N)cc1OC (stereo unspecified) [AMISULPRIDE] , system 3',5'-cyclic-AMP phosphodiesterase 4D (Homo sapiens): what AC50 was measured?; note: assay procedure not described here
Result :: > 30 µM

Query :: Entry CCN(CC)CCN1C(=O)CN=C(c2ccccc2F)c2cc(Cl)ccc21 [FLURAZEPAM] , system 3',5'-cyclic-AMP phosphodiesterase 4D (Homo sapiens): what AC50 was measured?; note: assay procedure not described here
Result :: > 30 µM

Query :: Entry O=C(O)c1cn(C2CC2)c2cc(N3CCNCC3)c(F)cc2c1=O [CIPROFLOXACIN] , system 3',5'-cyclic-AMP phosphodiesterase 4D (Homo sapiens): what AC50 was measured?; note: assay procedure not described here
Result :: > 30 µM

Query :: Entry CCN(CC)C(=O)Nc1ccc(OCC(O)CNC(C)(C)C)c(C(C)=O)c1 (stereo unspecified) [CELIPROLOL] , system 3',5'-cyclic-AMP phosphodiesterase 4D (Homo sapiens): what AC50 was measured?; note: assay procedure not described here
Result :: > 30 µM
